Below, pIC50 values reported for Prostaglandin G/H synthase 1 (Homo sapiens) across several publications.
Would you please state pIC50, meaning minus log10 of the concentration in mol/L, as a bare number?

Solved entries:
>  <COMPOUND>
Cc1nc(-c2ccc(C)s2)c(-c2ccc(S(N)(=O)=O)cc2)o1

>  <TARGET_OF_ASSAY>
Prostaglandin G/H synthase 1 (Homo sapiens)

>  <pIC50>
5.74

$$$$
>  <COMPOUND>
COc1ccc(-c2cnnn2-c2ccc(S(C)(=O)=O)cc2)cc1

>  <TARGET_OF_ASSAY>
Prostaglandin G/H synthase 1 (Homo sapiens)

>  <pIC50>
6.08

$$$$
>  <COMPOUND>
COc1cc(OC(F)(F)F)cc2c1OC(C(F)(F)F)C(C(=O)O)=C2 (stereo not given)

>  <TARGET_OF_ASSAY>
Prostaglandin G/H synthase 1 (Homo sapiens)

>  <pIC50>
6.49

$$$$
>  <COMPOUND>
NS(=O)(=O)c1ccc(-n2cc(C(F)(F)F)nc2-c2ccc(F)cc2)cc1

>  <TARGET_OF_ASSAY>
Prostaglandin G/H synthase 1 (Homo sapiens)

>  <pIC50>
5.72

$$$$

Shifting focus to the compound that follows.
Item CS(=O)(=O)c1ccc(-n2cc(C(F)(F)F)nc2-c2cc3ccccc3cn2)cc1 has what recorded pIC50?
4.49

###

Below, IC50 values reported for Prostaglandin G/H synthase 1 (Homo sapiens) across several publications.

Solved entries:
>  <TEST_SMILES>
O=C([O-])c1cccc(Cc2cc(Cl)ccc2OCc2ccc(Cl)cc2F)n1.[Na+]

>  <QUANTITY>
IC50

>  <READING>
> 31.6 µM

$$$$
>  <TEST_SMILES>
COC(=O)c1cc(-c2ccc(F)cc2)c(-c2ccc(S(N)(=O)=O)cc2)s1

>  <QUANTITY>
IC50

>  <READING>
> 50 µM

$$$$
>  <TEST_SMILES>
CNS(=O)(=O)c1ccc(-c2oc(C)nc2C2CCCCC2)cc1

>  <QUANTITY>
IC50

>  <READING>
> 100 µM

$$$$

# value lookup — system Prostaglandin G/H synthase 1 (Homo sapiens), readout IC50, item CN(C)c1cc(-c2nc(C(F)(F)F)cn2-c2ccc(S(C)(=O)=O)cc2)ccc1Cl
> 100 µM

Try this molecule next: CC/C=N/c1c(C#N)c2n(c1C(=O)Nc1ccc(Br)cc1)CCC2
14.2 µM

Try this molecule next: NS(=O)(=O)c1ccc(-n2nc(C(F)(F)F)c3c2-c2cc(F)ccc2CS3)cc1
6.24 µM

Try this molecule next: C=CCn1nc(-c2ccc(S(C)(=O)=O)cc2)c(-c2ccc(F)cc2)c1C(F)(F)F
> 100 µM

Try this molecule next: Cc1nc(-c2ccc(S(C)(=O)=O)cc2)c(-c2ccc(Cl)s2)o1
93 µM

Try this molecule next: COc1ccc(/C=C/c2cc(OC)cc(OC)c2/C=C/C(=O)N2CCOCC2)cc1
> 50 µM

Try this molecule next: O=C(COc1cc(O)c2c(=O)cc(-c3ccccc3)oc2c1)OCc1cc(-c2ccc(Cl)cc2)n(-c2ccccc2)n1
> 50 µM

Try this molecule next: CS(=O)(=O)c1ccc(-n2cc(-c3ccccc3)nc2-c2ccc(Cl)cc2)cc1
> 100 µM

Try this molecule next: CS(=O)(=O)Nc1cc2c(cc1Sc1ccc(F)cc1F)C(=O)CC2
> 10 µM

###

pIC50: −log10 of the molar value.
Below, pIC50 values reported for Prostaglandin G/H synthase 1 (Homo sapiens, UniProt P23219) across several publications.

Solved entries:
>  <COMPOUND>
COc1ccc(/C=C/c2cc(OC)cc(OC)c2/C=C/C(=O)NCCCN2CCOCC2)cc1

>  <pIC50>
< 4.30

$$$$
>  <COMPOUND>
Cc1nn(-c2ccccc2)c(N2CCN(C)CC2)c1/C=N/Nc1nc2ccccc2nc1O

>  <pIC50>
< 4.30

$$$$
>  <COMPOUND>
Cc1nn(-c2ccccc2)c(N2CCNCC2)c1/C=N/Nc1nc2ccccc2nc1O

>  <pIC50>
< 4.30

$$$$
>  <COMPOUND>
COc1ccc(/C=C/c2cc(OC)cc(OC)c2/C=C/C(=O)N2CCC(C)CC2)cc1

>  <pIC50>
< 4.30

$$$$
>  <COMPOUND>
O=CC1=Cc2cc(S(F)(F)(F)(F)F)ccc2OC1C(F)(F)F (stereo unspecified)

>  <pIC50>
< 5.00

$$$$

Item Cc1ccnc(-c2nc(C(F)(F)F)cn2-c2ccc(S(N)(=O)=O)cc2)c1 has what recorded pIC50?
4.08

Try this compound next: CC(=O)N1CCN(c2c(/C=N/Nc3nc4ccccc4nc3O)c(C)nn2-c2ccccc2)CC1
< 4.30

Try this compound next: Nc1ccccc1NC(=O)c1ccc(C(F)(F)F)cc1
4.06

Try this compound next: COc1ccc(/C=C/c2cc(OC)cc(OC)c2/C=C/C(=O)N2CCCC2)cc1
< 4.30

Try this compound next: O=C(O)c1ccc(-c2ccsc2-c2ccc(F)cc2)cc1
< 4.30

Try this compound next: COc1ccc2c(c1)c(CC(=O)NCCc1ccccc1)c(C)n2C(=O)c1ccc(Cl)cc1
< 4.18

###

Below, IC50 values reported for Prostaglandin G/H synthase 1 (Homo sapiens, UniProt P23219) across several publications.

Item O=C(O)Cc1c(-c2ccccc2)n(C(=O)c2ccc(Cl)cc2)c2ccccc12 has what recorded IC50?
> 400 µM

Try this compound next: CS(=O)(=O)c1ccc(-c2c(F)c(F)c(F)c(F)c2-c2ccc(F)cc2)cc1
> 100 µM

Try this compound next: C#CCNC(=O)/C=C/c1c(/C=C/c2ccc(OC)cc2)cc(OC)cc1OC
> 50 µM

Try this compound next: CS(=O)(=O)c1ccc(-n2cc(COc3ccc(Cl)cc3)nc2-c2ccc(Cl)cc2)cc1
> 100 µM

Try this compound next: CC1(C)OC(=O)C(Oc2ccc3sccc3c2)=C1c1ccc(S(C)(=O)=O)cc1
< 0.3 µM

Try this compound next: Oc1cc(O)cc(/C=C/c2ccc(F)cc2)c1
51.3 µM

Try this compound next: CS(=O)(=O)c1ccc(-c2sc3ncnn3c2-c2cc(F)cc(F)c2)cc1
> 50 µM

Try this compound next: CS(=O)(=O)c1ccc(-c2nn(CCc3ccccc3)c(C(F)(F)F)c2-c2ccc(F)cc2)cc1
> 100 µM

Try this compound next: CS(=O)(=O)c1ccc(C2=C(c3ccc(F)c(C(F)(F)F)c3)CCC2)cc1
> 100 µM

Try this compound next: O=C(NCCc1c[nH]c2ccccc12)c1ccc(F)cc1O
> 40 µM

Try this compound next: CCS(=O)(=O)c1ccc(-c2oc(C)nc2-c2ccc(F)cc2)cc1
> 100 µM

Try this compound next: O=C(O)c1cccc(Nc2ccc(S(F)(F)(F)(F)F)cc2)c1
> 100 µM

Try this compound next: COc1c(Br)cc(-c2nc(C(F)(F)F)cn2-c2ccc(S(C)(=O)=O)cc2)cc1Br
> 100 µM

Try this compound next: CNS(=O)(=O)c1ccc(-c2ccsc2-c2ccc(F)cc2)cc1
> 50 µM

Try this compound next: Cc1nc(C2CCCCC2)c(-c2ccc(S(N)(=O)=O)c(C)c2)o1
> 100 µM

Try this compound next: CS(=O)(=O)c1ccc(-n2cc(CF)nc2-c2ccc(Cl)cc2)cc1
> 100 µM

Try this compound next: CS(=O)(=O)c1ccc(-c2sc(CCCc3ccccc3)nc2-c2ccc(F)cc2)cc1
> 1000 µM

Try this compound next: COc1ccc(/C=C/c2cc(OC)cc(OC)c2/C=C/C(=O)O)cc1
> 50 µM

Try this compound next: CS(=O)(=O)c1ccc(-c2sc(-c3ccccc3Cl)nc2-c2cc(F)ccc2F)cc1
> 100 µM

###

Below, pIC50 values reported for Prostaglandin G/H synthase 1 (Homo sapiens, UniProt P23219) across several publications.
Would you please state pIC50, meaning minus log10 of the concentration in mol/L, as a bare number?

>  <COMPOUND>
O=C(COc1cc(O)c2c(=O)cc(-c3ccccc3)oc2c1)OCc1cc(-c2ccc([N+](=O)[O-])cc2)n(-c2ccccc2)n1

>  <TARGET_OF_ASSAY>
Prostaglandin G/H synthase 1 (Homo sapiens, UniProt P23219)
Sequence (P23219 whole entry): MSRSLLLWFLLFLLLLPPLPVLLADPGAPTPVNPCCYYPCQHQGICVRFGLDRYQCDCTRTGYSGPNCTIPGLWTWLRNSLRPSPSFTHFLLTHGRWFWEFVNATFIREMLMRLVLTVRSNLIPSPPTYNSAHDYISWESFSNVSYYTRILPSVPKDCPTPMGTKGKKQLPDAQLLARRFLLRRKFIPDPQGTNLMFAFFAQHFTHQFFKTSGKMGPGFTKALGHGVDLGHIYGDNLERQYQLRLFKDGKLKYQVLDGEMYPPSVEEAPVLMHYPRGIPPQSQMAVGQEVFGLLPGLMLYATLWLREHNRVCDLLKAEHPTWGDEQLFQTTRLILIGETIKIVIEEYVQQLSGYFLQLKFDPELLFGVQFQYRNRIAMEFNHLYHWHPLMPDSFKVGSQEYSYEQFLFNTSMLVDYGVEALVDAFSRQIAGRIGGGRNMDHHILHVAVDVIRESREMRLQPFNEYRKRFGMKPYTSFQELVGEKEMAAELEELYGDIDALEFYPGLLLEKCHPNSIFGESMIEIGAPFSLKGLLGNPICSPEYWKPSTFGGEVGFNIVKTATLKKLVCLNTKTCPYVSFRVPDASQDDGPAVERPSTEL

>  <pIC50>
4.38

$$$$

Item Clc1ccc(-n2cc(CSc3nc4ccccc4o3)nn2)cc1 has what recorded pIC50?
4.09

Try this compound next: CCc1ccc(-n2cc(CSc3nc4ccccc4o3)nn2)cc1
3.61

Try this compound next: CC1(C)Cc2c(-c3ccccc3)c(-c3ccc(Cl)cc3)c(CC(=O)O)n2C1
6.10

Try this compound next: NS(=O)(=O)c1ccc(C2=C(c3ccc(C(F)(F)F)c(F)c3)CCC2)cc1
4.84

Try this compound next: Cc1ccc(-n2c(-c3ccc(S(C)(=O)=O)cc3)coc2=O)cc1
4.94

Try this compound next: O=C(O)C1=Cc2c(Cl)ccc(Cl)c2OC1C(F)(F)F (stereo unspecified)
4.96

Try this compound next: CS(=O)(=O)c1ccc(-c2sc3ncnn3c2-c2ccccc2)cc1
4.37

Try this compound next: CC1(Cn2ncc(-c3ccc(S(C)(=O)=O)cc3)c(-c3ccc(F)cc3)c2=O)CC1
5.52

Try this compound next: COc1ccc(-c2noc(CC(=O)NCCCCCCCCCCC(=O)OC[C@H]3OC(O)[C@H](O)[C@@H](O)[C@H]3O)c2-c2ccc(OC)cc2)cc1 (stereo partly specified)
6.40

Try this compound next: CCCCC/C=C\C/C=C\CCCCCCCC(=O)O
4.89
